Molecular target: Replicative DNA helicase DnaB (Mycobacterium tuberculosis, UniProt P9WMR3)
Sequence (P9WMR3 1-399, added parts left off): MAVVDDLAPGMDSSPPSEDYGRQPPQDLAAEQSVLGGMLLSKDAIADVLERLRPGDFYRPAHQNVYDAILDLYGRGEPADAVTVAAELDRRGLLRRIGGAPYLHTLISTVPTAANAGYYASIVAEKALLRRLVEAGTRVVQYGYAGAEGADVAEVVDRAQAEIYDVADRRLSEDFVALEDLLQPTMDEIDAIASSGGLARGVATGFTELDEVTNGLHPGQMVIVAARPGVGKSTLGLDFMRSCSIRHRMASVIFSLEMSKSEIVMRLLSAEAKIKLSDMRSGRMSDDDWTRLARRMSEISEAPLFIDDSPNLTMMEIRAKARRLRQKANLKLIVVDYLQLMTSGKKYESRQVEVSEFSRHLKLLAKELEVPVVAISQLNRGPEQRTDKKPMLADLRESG
Experiment: DnaB intein splicing inhibitors, dose response, biochemical, cell-free fluorescence (AID 449749)
Type: functional
Activity calls are given as the source filed them. Rule as the data show it: actives have a measured AC50 and inactives only a lower limit.
Some molecules, each annotated with its measured AC50.

MOLECULE: Cc1cc(C)cc(OC(=O)C[S+]([O-])c2ccc(C(F)(F)F)cc2[N+](=O)[O-])c1 (stereo not given)
AC50: 4.03 µM (active)
//
MOLECULE: CC(=O)Nc1ccc(NC(=O)c2nc(S(=O)(=O)Cc3cccc(C)c3)ncc2Cl)cc1
AC50: 7.54 µM (active)
//
MOLECULE: CC(=O)C12CC(C)=C(C)CC1CC1C3CCC4=CC(=O)CCC4(C)C3CCC12C (stereo not given)
AC50: 3.05 µM (active)
//
MOLECULE: CC(NC(=O)/C(C#N)=C/c1ccc(Cl)c([N+](=O)[O-])c1)c1ccccc1 (stereo not given)
AC50: 4.02 µM (active)
//
MOLECULE: CCn1nc(/C=C/c2ccccc2)nc2c(=O)n(C)c(=O)nc1-2
AC50: 0.487 µM (active)
//
MOLECULE: O=[N+]([O-])C(/C=C(\Cl)[N+](=O)[O-])=C1N(Cc2ccc(Cl)nc2)CCN1Cc1ccc(Cl)nc1
AC50: 11.4 µM (active)
//
MOLECULE: COc1ccc(Nc2ccc(OC)cc2)cc1
AC50: 121 µM (active)
//
MOLECULE: O=C(CCl)c1ccc2c(c1)CCN2C(=O)C1CCCCC1
AC50: 42.4 µM (active)
//
MOLECULE: O=C1NC(=O)C(=Cc2ccc(Oc3ccc([N+](=O)[O-])cc3)cc2)C(=O)N1
AC50: 29.5 µM (active)
//
MOLECULE: CCOC(=O)C1=C(O)c2ccccc2C(=O)/C1=C\c1ccc(CC)cc1
AC50: 4.44 µM (active)
